# Tested on: DU-145
# test.summary: Cytotoxicity against human DU145 cells assessed as growth inhibition after 48 hrs by MTT assay
# Assay type: functional, cell-based
# conditions: DU-145, 48 h
observable: pIC50
Please keep in mind that pIC50 is minus log10 of the molar concentration; only the number is needed.

Sample records with pIC50:
O=[N+]([O-])c1ccc2c(c1)S(=O)(=O)C=C2    5.60
CC(C)NC(=O)C1=Cc2cc(Br)ccc2S1(=O)=O    5.66
O=C(Nc1ccccc1)C1=Cc2cc([N+](=O)[O-])ccc2S1(=O)=O    5.28
O=C(C1=Cc2cc(Br)ccc2S1(=O)=O)N1CCOCC1    5.72
CC1CCCN(C(=O)C2=Cc3cc(Br)ccc3S2(=O)=O)C1 (stereo unspecified)    5.85
O=C(Nc1cccc(Cl)c1)C1=Cc2c(Br)cccc2S1(=O)=O    5.47

Read the entry `O=C(C1=Cc2cc(Br)ccc2S1(=O)=O)N1CCCC1` and write its reported pIC50.
5.81

Read the entry CC1CCCCN1C(=O)C1=Cc2cc(Br)ccc2S1(=O)=O (stereo unspecified) and write its reported pIC50.
6.01

Read the entry `O=C(Nc1ccccc1)C1=Cc2c(Br)cccc2S1(=O)=O` and write its reported pIC50.
5.58

Read the entry `CN(C(=O)C1=Cc2cc(Br)ccc2S1(=O)=O)c1ccccc1` and write its reported pIC50.
5.90

Read the entry `O=C(Nc1ccccc1)C1=Cc2cc(NC(=O)c3ccccc3)ccc2S1(=O)=O` and write its reported pIC50.
5.21

###

# Tested on: SMMC-7721
# test.summary: Cytotoxicity against human SMMC7721 cells assessed as growth inhibition after 48 hrs by MTT assay
# Type: functional, cell-based
# conditions: SMMC-7721, 48 h
observable: pIC50
Please keep in mind that pIC50 is minus log10 of the molar concentration; only the number is needed.

O=C(Nc1ccccc1)C1=Cc2c(Br)cccc2S1(=O)=O    5.62

Lab note: record pIC50 of `CC(C)NC(=O)C1=Cc2cc(Br)ccc2S1(=O)=O` tested on SMMC-7721.
5.62

###

# System: DU-145
# test.summary: Cytotoxicity against human DU145 cells assessed as growth inhibition after 48 hrs by MTT assay
# Type: functional, cell-based
# conditions: DU-145, 48 h
observable: IC50 (nM)
The reply should be a number in nM, with the unit left off.

Sample records with IC50:
CCCCNC(=O)C1=Cc2cc(Br)ccc2S1(=O)=O    3860
O=C(NC1CCCCC1)C1=Cc2cc(Br)ccc2S1(=O)=O    5730
O=C(Nc1ccc(Cl)cc1)C1=Cc2c(Br)cccc2S1(=O)=O    6340

Lab note: record IC50 of `O=C(Nc1ccc2c(c1)C=C(C(=O)N1CCCCC1)S2(=O)=O)c1ccccc1` tested on DU-145.
2070

Lab note: record IC50 of `O=C(Nc1ccccc1)C1=Cc2cc(Br)ccc2S1(=O)=O` tested on DU-145.
2770

Lab note: record IC50 of `O=C(Nc1ccccc1)C1=Cc2ccc(Br)cc2S1(=O)=O` tested on DU-145.
2660

###

# Test system: DU-145
# test.summary: Cytotoxicity against human DU145 cells assessed as growth inhibition after 48 hrs by MTT assay
# Format: functional, cell-based
# conditions: DU-145, 48 h
Overview of reported pIC50 across a group of compounds:
Please keep in mind that pIC50 is minus log10 of the molar concentration; only the number is needed.

Sample records with pIC50:
CC(C)(C)NC(=O)C1=Cc2cc(Br)ccc2S1(=O)=O    5.87
CCN(CC)C(=O)C1=Cc2cc(Br)ccc2S1(=O)=O    5.84

Read the entry `Cc1ccc(NC(=O)C2=Cc3c(Br)cccc3S2(=O)=O)cc1` and write its reported pIC50.
5.52

FYI, the data here is from ChEMBL document CHEMBL3632496.
